test: Solubility of crystal form E at 25° C., analysis by HPLC; assay type: physicochemical; conditions: buffer pH 1 (0.1 N HCl), 25 °C, pH 1, simulated gastric fluid, thermodynamic from solid
readout_kind: solubility (µg/mL)
Answers are plain numbers, in µg/mL.

# return recorded solubility for input CC(C)c1nc2cc(O)ccc2c(=O)n1-c1ccc(C#N)cc1 [Crystal form E]
345

* * *

experiment: Solubility of crystal form E at 25° C., analysis by HPLC; type: physicochemical; details: phosphate buffer pH 6.88, 25 °C, aqueous buffer, thermodynamic from solid; Buffer pH 6.88 (phosphate)
readout_kind: solubility (µg/mL)
Numbers only, in µg/mL.

For CC(C)c1nc2cc(O)ccc2c(=O)n1-c1ccc(C#N)cc1 [Crystal form E] , write its solubility.
11
